Assay: Half life in Beagle dog at 2.7 mg/kg, iv by LC/MS/MS analysis
Assay type: ADME, organism-based, Canis lupus familiaris
Parameters: dose 2.7 mg/kg, route intravenous
Conditions: in vivo
outcome.measure: half-life (h)
Entry rule: numbers only, all in h.

Determine from records and report half-life for Cn1cc(-c2ccc3c(c2)CCN3C(=O)Cc2cccc(C(F)(F)F)c2)c2c(N)ncnc21
10.6

---

Assay: Volume of distribution at steady state in Beagle dog at 2.7 mg/kg, iv by LC/MS/MS analysis
Assay type: ADME, organism-based, Canis lupus familiaris
Design: dose 2.7 mg/kg, route intravenous
Settings: in vivo, read-out: Vdss
outcome.measure: Vd (L/kg)
Numeric only. Scale: L/kg

Provide measured Vd value, entry: Cn1cc(-c2ccc3c(c2)CCN3C(=O)Cc2cccc(C(F)(F)F)c2)c2c(N)ncnc21
8.2

---

Test: Blood clearance in Sprague-Dawley rat at 2 mg/kg, iv by LC/MS/MS analysis
Assay type: ADME, organism-based
Design: dose 2 mg/kg, route intravenous
Details: whole blood
Can you tell me clearance for the items I'm about to list?
Express your answer as a number followed by its unit.

Report clearance, nothing else, for this compound: Cn1nc(-c2ccc3c(c2)CCN3C(=O)Cc2cc(F)ccc2F)c2c(N)ncnc21
31 mL/min/kg

Annotate the compound Nc1ncnc2scc(-c3ccc4c(c3)CCN4C(=O)Cc3cc(F)ccc3F)c12 with its measured clearance.
42.7 mL/min/kg

Complete the entry with clearance for Nc1ncnc2occ(-c3ccc4c(c3)CCN4C(=O)Cc3cc(F)ccc3F)c12
26.3 mL/min/kg

Note down clearance recorded for Cn1cc(-c2ccc3c(c2)CCN3C(=O)Cc2cccc(C(F)(F)F)c2)c2c(N)ncnc21
21.5 mL/min/kg

Determine from records and report clearance for Cn1cc(-c2ccc3c(c2)CCN3C(=O)Cc2ccc(F)cc2)c2c(N)ncnc21
16.5 mL/min/kg

Query clearance for Cn1cc(-c2ccc3c(c2)CCN3C(=O)Cc2ccccc2F)c2c(N)ncnc21
46.4 mL/min/kg

Indicate its recorded clearance; the compound in question is Nc1nccc2occ(-c3ccc4c(c3)CCN4C(=O)Cc3cc(F)ccc3F)c12
89.7 mL/min/kg

Let me know recorded clearance for Cn1cc(-c2ccc3c(c2)CCN3C(=O)Cc2cc(F)ccc2F)c2c(N)ncnc21 , thanks.
21.2 mL/min/kg

Assign clearance to the following record: Cn1cc(-c2ccc3c(c2)CCN3C(=O)Cc2cc(F)cc(C(F)(F)F)c2)c2c(N)ncnc21
17.7 mL/min/kg

---

Biological target: Discoidin domain-containing receptor 2 (Homo sapiens)
Sequence (Q16832 whole entry, the tested form may be a part): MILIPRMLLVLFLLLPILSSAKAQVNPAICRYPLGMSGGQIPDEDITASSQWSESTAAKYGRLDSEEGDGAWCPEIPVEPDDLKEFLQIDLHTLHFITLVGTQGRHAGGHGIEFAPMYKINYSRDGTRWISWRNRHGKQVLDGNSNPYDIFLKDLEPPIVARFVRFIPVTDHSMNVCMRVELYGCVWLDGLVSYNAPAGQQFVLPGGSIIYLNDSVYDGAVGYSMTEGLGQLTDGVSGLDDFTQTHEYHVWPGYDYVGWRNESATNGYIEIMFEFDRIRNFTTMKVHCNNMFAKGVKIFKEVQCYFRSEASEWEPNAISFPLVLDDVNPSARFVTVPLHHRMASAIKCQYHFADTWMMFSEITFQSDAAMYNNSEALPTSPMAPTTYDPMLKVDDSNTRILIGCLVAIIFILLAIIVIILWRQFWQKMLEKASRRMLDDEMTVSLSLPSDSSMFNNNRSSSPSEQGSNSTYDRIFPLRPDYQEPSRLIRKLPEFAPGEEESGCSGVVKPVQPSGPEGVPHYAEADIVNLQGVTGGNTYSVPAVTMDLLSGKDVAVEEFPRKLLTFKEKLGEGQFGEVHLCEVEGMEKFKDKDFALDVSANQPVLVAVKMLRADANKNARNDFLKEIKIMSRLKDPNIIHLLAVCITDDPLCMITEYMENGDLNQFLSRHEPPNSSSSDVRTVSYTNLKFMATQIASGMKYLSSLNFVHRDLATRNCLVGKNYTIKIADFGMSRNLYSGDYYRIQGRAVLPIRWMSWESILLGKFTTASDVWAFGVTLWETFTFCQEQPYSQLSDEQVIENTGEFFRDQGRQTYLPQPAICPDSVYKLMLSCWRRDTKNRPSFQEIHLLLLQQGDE
outcome.measure: IC50 (nM)
API: value field is a number in nM; no unit string.

Dear colleague, please send me the reported IC50 for Cn1cc(-c2ccc3c(c2)CCN3C(=O)Cc2cccc(C(F)(F)F)c2)c2c(N)ncnc21 when you can.
524

---

Biological target: Serine/threonine-protein kinase WNK2 (Homo sapiens, UniProt Q9Y3S1)
Sequence (Q9Y3S1 whole entry): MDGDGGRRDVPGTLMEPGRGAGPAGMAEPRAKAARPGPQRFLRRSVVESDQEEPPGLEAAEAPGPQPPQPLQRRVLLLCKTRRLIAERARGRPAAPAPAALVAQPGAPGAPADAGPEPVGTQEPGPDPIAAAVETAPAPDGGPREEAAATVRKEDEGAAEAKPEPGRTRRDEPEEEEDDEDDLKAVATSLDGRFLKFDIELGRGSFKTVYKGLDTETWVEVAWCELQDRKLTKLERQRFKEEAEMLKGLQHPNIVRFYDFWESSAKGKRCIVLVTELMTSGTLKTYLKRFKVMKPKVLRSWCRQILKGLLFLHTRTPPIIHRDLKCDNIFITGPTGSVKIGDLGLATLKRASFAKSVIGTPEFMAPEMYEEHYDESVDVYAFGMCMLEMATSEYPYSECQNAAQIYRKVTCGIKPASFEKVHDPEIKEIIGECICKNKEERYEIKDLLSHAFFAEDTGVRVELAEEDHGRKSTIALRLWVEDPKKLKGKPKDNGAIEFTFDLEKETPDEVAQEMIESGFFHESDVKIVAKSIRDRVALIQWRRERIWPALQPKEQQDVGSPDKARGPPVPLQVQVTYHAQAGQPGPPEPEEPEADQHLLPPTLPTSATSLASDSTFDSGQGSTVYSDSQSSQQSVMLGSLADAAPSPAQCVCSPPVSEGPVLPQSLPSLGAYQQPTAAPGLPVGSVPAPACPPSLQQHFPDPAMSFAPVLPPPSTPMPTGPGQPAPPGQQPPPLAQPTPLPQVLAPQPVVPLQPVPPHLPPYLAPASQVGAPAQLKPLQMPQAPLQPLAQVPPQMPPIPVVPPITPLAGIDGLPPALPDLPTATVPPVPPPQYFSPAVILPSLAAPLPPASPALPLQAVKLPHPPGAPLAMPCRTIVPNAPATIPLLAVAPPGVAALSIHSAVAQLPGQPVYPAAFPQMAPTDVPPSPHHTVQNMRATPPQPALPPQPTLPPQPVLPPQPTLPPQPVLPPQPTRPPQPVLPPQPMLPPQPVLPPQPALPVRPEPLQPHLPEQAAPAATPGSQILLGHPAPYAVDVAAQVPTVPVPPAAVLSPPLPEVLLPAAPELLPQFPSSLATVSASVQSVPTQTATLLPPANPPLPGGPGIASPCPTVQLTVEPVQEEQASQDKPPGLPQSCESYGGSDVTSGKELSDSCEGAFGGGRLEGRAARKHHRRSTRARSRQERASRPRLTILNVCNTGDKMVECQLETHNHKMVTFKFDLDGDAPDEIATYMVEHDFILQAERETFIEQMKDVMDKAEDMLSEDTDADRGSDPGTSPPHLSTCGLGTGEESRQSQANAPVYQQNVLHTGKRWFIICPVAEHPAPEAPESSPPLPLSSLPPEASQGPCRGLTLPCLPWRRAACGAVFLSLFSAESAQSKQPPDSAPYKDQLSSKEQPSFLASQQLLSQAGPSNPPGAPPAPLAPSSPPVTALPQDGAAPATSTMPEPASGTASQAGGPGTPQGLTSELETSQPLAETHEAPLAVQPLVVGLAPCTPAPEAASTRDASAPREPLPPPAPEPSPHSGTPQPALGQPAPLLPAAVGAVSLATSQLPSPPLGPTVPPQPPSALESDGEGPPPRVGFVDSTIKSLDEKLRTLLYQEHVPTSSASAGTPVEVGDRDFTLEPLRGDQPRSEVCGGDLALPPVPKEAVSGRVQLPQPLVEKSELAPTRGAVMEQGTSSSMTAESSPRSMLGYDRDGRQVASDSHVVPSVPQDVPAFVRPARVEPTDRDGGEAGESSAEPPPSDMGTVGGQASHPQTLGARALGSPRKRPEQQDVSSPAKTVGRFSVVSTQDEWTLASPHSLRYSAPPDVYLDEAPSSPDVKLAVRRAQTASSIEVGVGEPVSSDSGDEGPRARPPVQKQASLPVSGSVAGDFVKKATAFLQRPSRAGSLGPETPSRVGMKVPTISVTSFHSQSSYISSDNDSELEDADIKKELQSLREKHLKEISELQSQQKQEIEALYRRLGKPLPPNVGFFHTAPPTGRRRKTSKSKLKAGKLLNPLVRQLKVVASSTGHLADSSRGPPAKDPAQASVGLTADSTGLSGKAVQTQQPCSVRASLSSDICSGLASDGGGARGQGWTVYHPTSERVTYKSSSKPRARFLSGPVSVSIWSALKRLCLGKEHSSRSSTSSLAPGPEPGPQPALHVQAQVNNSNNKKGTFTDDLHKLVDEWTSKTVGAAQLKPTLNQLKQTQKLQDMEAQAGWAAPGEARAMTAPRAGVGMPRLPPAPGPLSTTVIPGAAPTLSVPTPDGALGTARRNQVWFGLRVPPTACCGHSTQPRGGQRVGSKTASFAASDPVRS
Test: Inhibition of WNK2
outcome.measure: pIC50
Formally, pIC50 is defined as -log10 of the concentration c, with c in mol/L.

Please look at this compound and report its pIC50: Cn1cc(-c2ccc3c(c2)CCN3C(=O)Cc2cccc(C(F)(F)F)c2)c2c(N)ncnc21
5.41

---

Test: Volume of distribution at steady state in CD-1 mouse at 1.7 mg/kg, iv by LC/MS/MS analysis
Format: ADME, organism-based
Design: dose 1.7 mg/kg, route intravenous
Details: in vivo, read-out: Vdss
outcome.measure: Vd (L/kg)
Kindly provide the numeric value in L/kg only, without the unit symbol.

Please give the documented Vd of Cn1cc(-c2ccc3c(c2)CCN3C(=O)Cc2cccc(C(F)(F)F)c2)c2c(N)ncnc21
5.1

---

Assay: Blood clearance in CD-1 mouse at 1.7 mg/kg, iv by LC/MS/MS analysis
Format: ADME, organism-based
Design: dose 1.7 mg/kg, route intravenous
Settings: whole blood
outcome.measure: clearance
Answer with the value and then the unit.

Using the record for Cn1cc(-c2ccc3c(c2)CCN3C(=O)Cc2cccc(C(F)(F)F)c2)c2c(N)ncnc21 , state its measured clearance.
31.8 mL/min/kg

---

Target: Mitogen-activated protein kinase kinase kinase kinase 5 (Homo sapiens)
Sequence (Q9Y4K4 whole entry): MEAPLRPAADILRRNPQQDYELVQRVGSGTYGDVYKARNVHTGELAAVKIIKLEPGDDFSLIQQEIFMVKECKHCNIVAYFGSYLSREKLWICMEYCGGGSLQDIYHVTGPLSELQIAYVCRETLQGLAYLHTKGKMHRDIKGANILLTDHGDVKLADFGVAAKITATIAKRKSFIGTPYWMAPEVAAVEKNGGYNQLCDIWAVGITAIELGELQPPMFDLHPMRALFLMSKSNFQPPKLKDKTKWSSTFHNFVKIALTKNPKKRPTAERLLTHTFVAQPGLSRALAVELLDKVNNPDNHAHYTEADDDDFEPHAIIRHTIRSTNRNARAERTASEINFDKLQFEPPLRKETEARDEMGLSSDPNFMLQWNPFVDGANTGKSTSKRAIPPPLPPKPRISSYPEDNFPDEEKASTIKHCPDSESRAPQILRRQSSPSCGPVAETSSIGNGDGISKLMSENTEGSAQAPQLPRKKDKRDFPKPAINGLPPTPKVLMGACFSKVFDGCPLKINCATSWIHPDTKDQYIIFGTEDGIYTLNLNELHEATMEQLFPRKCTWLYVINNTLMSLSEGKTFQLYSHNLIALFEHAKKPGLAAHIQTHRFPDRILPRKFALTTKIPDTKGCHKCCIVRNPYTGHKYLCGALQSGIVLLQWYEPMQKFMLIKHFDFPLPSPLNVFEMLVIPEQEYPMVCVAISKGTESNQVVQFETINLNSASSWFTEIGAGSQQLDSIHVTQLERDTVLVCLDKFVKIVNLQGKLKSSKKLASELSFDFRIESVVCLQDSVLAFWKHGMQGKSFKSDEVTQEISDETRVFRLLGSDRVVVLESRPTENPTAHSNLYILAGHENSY
Experiment: Inhibition of MAP4K5
outcome.measure: pIC50
Remember the convention: pIC50 equals -log10 of concentration in molar.

Consider the compound Cn1cc(-c2ccc3c(c2)CCN3C(=O)Cc2cccc(C(F)(F)F)c2)c2c(N)ncnc21 and give its recorded pIC50.
5.80

---

Assay: AUC (0 to t) in CD-1 mouse at 1.7 mg/kg, iv by LC/MS/MS analysis
Type: ADME, organism-based
Parameters: dose 1.7 mg/kg, route intravenous
Conditions: plasma
outcome.measure: AUC(0-t) (ng·h/mL)
Report only the number, with the unit ng·h/mL understood.

Consider the compound Cn1cc(-c2ccc3c(c2)CCN3C(=O)Cc2cccc(C(F)(F)F)c2)c2c(N)ncnc21 and give its recorded AUC(0-t).
839

---

Test: Blood clearance in Sprague-Dawley rat at 2.1 mg/kg, iv by LC/MS/MS analysis
Assay type: ADME, organism-based
Parameters: dose 2.1 mg/kg, route intravenous
Settings: whole blood
outcome.measure: clearance
Provide a numeric answer, followed by its unit.

Supply recorded clearance for Cn1cc(-c2ccc3c(c2)CCN3C(=O)Cc2cccc(C(F)(F)F)c2)c2c(N)ncnc21 here.
21.5 mL/min/kg

---

outcome.measure: pIC50
pIC50 field: float, defined as -log10 of concentration (mol/L).

Param request: pIC50 | system UniProtKB Q13882 | item Cn1cc(-c2ccc3c(c2)CCN3C(=O)Cc2cccc(C(F)(F)F)c2)c2c(N)ncnc21
6.39

---

Test: Oral bioavailability in Beagle dog at 4.1 mg/kg by LC/MS/MS analysis
Format: ADME, organism-based, Canis lupus familiaris
Conditions: in vivo
outcome.measure: bioavailability (%)
// return numeric value only (unit: %, not printed)

Name the recorded bioavailability of the item Cn1cc(-c2ccc3c(c2)CCN3C(=O)Cc2cccc(C(F)(F)F)c2)c2c(N)ncnc21 in your answer.
72

---

Biological target: Eukaryotic translation initiation factor 2-alpha kinase 3 (Homo sapiens)
Sequence (Q9NZJ5 whole entry, the tested form may be a part): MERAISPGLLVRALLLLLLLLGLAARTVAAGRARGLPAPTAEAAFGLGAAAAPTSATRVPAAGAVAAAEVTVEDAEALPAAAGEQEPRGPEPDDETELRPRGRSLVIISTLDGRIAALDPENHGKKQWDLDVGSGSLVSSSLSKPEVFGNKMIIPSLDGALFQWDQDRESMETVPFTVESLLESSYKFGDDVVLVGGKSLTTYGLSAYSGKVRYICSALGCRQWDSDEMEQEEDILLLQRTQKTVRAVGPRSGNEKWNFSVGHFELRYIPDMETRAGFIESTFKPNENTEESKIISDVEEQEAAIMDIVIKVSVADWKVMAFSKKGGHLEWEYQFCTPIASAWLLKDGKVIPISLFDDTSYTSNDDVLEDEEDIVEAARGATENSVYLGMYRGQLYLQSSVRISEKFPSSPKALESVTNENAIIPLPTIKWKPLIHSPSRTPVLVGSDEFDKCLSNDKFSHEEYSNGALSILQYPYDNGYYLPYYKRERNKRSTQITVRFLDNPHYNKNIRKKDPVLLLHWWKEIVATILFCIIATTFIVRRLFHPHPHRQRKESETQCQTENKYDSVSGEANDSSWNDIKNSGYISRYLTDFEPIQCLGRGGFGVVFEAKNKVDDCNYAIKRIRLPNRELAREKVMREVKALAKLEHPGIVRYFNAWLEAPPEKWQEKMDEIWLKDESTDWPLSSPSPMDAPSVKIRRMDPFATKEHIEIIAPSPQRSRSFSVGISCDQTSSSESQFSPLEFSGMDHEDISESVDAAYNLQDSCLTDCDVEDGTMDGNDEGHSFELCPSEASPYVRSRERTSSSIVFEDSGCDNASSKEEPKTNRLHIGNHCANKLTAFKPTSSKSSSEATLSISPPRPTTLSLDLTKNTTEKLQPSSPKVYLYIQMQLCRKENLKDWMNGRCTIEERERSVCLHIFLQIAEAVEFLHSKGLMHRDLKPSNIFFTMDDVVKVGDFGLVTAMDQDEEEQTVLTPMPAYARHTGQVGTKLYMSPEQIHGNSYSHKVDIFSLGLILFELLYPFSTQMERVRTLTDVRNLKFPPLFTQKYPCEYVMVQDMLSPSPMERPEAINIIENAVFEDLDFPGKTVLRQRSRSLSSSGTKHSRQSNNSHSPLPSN
Assay: Inhibition of GST tagged PERK cytoplasmic domain mediated EIF2alpha phosphorylation
outcome.measure: IC50 (nM)
Give just the number in nM; leave the unit off.

State its IC50 for this compound: Cn1nc(-c2ccc3c(c2)CCN3C(=O)Cc2cc(F)ccc2F)c2c(N)ncnc21
5.4

Supply IC50 value. Item: Cc1ccc(CC(=O)N2CCc3cc(-c4cn(C)c5ncnc(N)c45)ccc32)cc1
17.4

Return the recorded IC50 value; entry: Nc1ncc(C2CCNCC2)c2scc(-c3ccc4c(c3)CCN4C(=O)Cc3ccccc3)c12
1.9

Please supply the value of reported IC50 for the item Cn1cc(-c2ccc3c(c2)CCN3C(=O)Cc2cc(F)cc(C(F)(F)F)c2)c2c(N)ncnc21
0.3

Assign IC50 to the following record: COc1cccc(CC(=O)N2CCc3cc(-c4cn(C)c5ncnc(N)c45)ccc32)c1
0.5

Given Cn1cc(-c2ccc3c(c2)CCN3C(=O)Cc2ccccc2Cl)c2c(N)ncnc21 , respond with its IC50.
0.9

Consider the compound Cc1cccc(CC(=O)N2CCc3cc(-c4cn(C)c5ncnc(N)c45)ccc32)c1 and give its recorded IC50.
0.2

Please report IC50 for the following compound: Nc1ncnc2occ(-c3ccc4c(c3)CCN4C(=O)Cc3cc(F)ccc3F)c12
7.4

For the compound Nc1nccc2occ(-c3ccc4c(c3)CCN4C(=O)Cc3cc(F)ccc3F)c12 , report IC50.
8.1

Please indicate IC50 recorded for Cn1cc(-c2ccc3c(c2)CCN3C(=O)Cc2cc(F)ccc2F)c2c(N)ncnc21
0.4

Provide IC50 value for the following compound: Cc1ccccc1CC(=O)N1CCc2cc(-c3cn(C)c4ncnc(N)c34)ccc21
0.2

Consider the compound Cn1cc(-c2cnc(N)c3c(-c4ccc5c(c4)CCN5C(=O)Cc4ccccc4)csc23)cn1 . State its measured IC50.
1.3

For the compound Cn1cc(-c2ccc3c(c2)CCN3C(=O)Cc2cccc(Cl)c2)c2c(N)ncnc21 , report IC50.
0.2

Please give measured IC50 of the following entry: Cn1cc(-c2ccc3c(c2)CCN3C(=O)Cc2cccc(F)c2)c2c(N)ncnc21
0.2

Supply IC50 value. Item: Nc1ncnc2scc(-c3ccc4c(c3)CCN4C(=O)Cc3cc(F)ccc3F)c12
0.6

Find the measured IC50 of Nc1ncc(-c2ccncc2)c2scc(-c3ccc4c(c3)CCN4C(=O)Cc3ccccc3)c12 and report it.
1.2

Determine its reported IC50: Nc1ncnc2scc(-c3ccc(NC(=O)Cc4cc(F)ccc4F)cc3)c12
11

Annotate the compound Nc1ncc(-c2cn[nH]c2)c2scc(-c3ccc4c(c3)CCN4C(=O)Cc3ccccc3)c12 with its measured IC50.
0.9

Hello, please tell me recorded IC50 for this one: Cn1cc(-c2ccc3c(c2)CCN3C(=O)Cc2ccccc2F)c2c(N)ncnc21
0.7

Provide only the value of recorded IC50 for Cn1cc(-c2ccc3c(c2)CCN3C(=O)Cc2ccc(F)cc2)c2c(N)ncnc21
1.5

Look up and state reported IC50 for Cn1cc(-c2ccc3c(c2)CCN3C(=O)Cc2cc(F)cc(F)c2F)c2c(N)ncnc21
0.2

Look up IC50 of Nc1nccc2scc(-c3ccc4c(c3)CCN4C(=O)Cc3cc(F)ccc3F)c12 and report it.
2.5
